Property: IC50; scope: individual binders
Target: Bcl-2 ΔC22 (Homo sapiens, UniProt P10415)
Test: competition assay; competitor: biotinylated Bim-BH3 peptide
Bridge positions count the residues as written; N and C are the ends.

- binder: "Ac-EIAQELREIGDEF-NH2 (linker 1-8 via 1,5‑diaminopentane) [Peptide A of Example 7: Ac-E-IAQELR-E-IGDEF-NH2 with a 1,5-diaminopentane linker (first position)]"
  IC50 [µM]: 26
- binder: "Ac-IAQELRRIGDEF-NH2 (linker 4-11 via 1,6‑diaminohexane) [Peptide C: Ac-IAQ-E-LRRIGD-E-F-NH2 with a 1,6-diaminohexane linker]"
  IC50 [µM]: 2.6
- binder: "Ac-IAQELRRIGDEF-NH2 [Linear 12mer Ac-…-NH2]"
  IC50 [µM]: 240
- binder: "Ac-IAQELRRIGDEF-NH2 (linker 4-11 via 1,5‑diaminopentane) [Acetyl-IAQ(E1)LRRIGD(E2)F-amide with a 1,5-diaminopentane linker (second position)]"
  IC50 [µM]: 0.29
